Molecular target: T1, recombinant human PCSK9-His protein (Immunogen A) (human, UniProt Q8NBP7 31-692, limits assumed, biotinylated in the ELISA assays)
T1 construct: also called hPCSK9-His; His-tagged hPCSK9; not shown: His tag
Experiment: ELISA; antibody 0.00067 nM
endpoint name: OD450 nm (OD450 nm)
One number for each entry, in OD450 nm.

**Q:** What does the data say about its OD450 nm? Entry: 152G2F7, fully human anti-PCSK9 antibody (antibody, human IgG1, V domains shown) VH: EVQLVESGGGLVQPGGSLRLSCAASEFTFGGYWMTWVRQAPGKGLEWVANIKQDGSEKYYVDSVKGRFTISRDNAKNSLYLHMNSLRAEDTAVYYCARDRTTMIRGVSLYYYYYGMDVWGQGTAVTVSS VL: EIVLTQSPATLSLSPGERATLSCRASQSVSSYLAWYQQKPGQAPRLLIYDASNRATGIPARFSGSGSGTDFTLTISSLEPEDFAVYYCQQRSNWPLTFGGGTKVEIK
**A:** 0.07
